Parameter: phosphorylation enrichment. Scope: all listed entries.
System: c-Src;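 further: 11-residue human phosphosite peptides and single-mutation variants displayed on the E. coli surface, counted by deep sequencing, each peptide's frequency after selection divided by its frequency in the unselected input library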;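 further: frequency after pTyr selection over input frequency; kinase dosed for 20-30% of maximal phosphorylation in three min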
Assay: phosphorylation enrichment, bacterial display (enrichment ratio); higher = better substrate or ligand; peptides without Tyr show the background

Please review the following examples before continuing.
- SEQUENCE: "RDIHDYIKHLG [UNC13C_Y308]"
  phosphorylation enrichment: 0.487
- SEQUENCE: "KPMDTYFDSTR [DYNC2H1_Y2230_YF]"
  phosphorylation enrichment: 0.512
- SEQUENCE: "VTSLKYSTSPY [BRIP1_Y916]"
  phosphorylation enrichment: 0.542

Suppose we examine the sequence IGSQRYKLGVR [RB1_Y446] ; what phosphorylation enrichment value has been reported?
0.356
